# Target entity: T1, human PCSK9 (self-cleaved, mature, secreted PCSK9 comprising amino acids 31 to 692 of SEQ ID NO: 2) (human, UniProt Q8NBP7 31-692, biotinylated in the ELISAs)
# T1 construct: Limits 31-692 are stated for the immunogen; the assays only say human PCSK9; also called huPCSK9; rhu PCSK9
# Assay summary: SPR pH 7.4;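 also: antibodies captured as ligand on the sensor surface, five analyte concentrations injected with buffer blanks, double-referenced data fit to a 1:1 binding model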
Readout type: koff (s⁻¹)
// note: answer is a bare numeric in s⁻¹

Name the recorded koff for SS-15141 (antibody, V domains shown, 31H4 His variant: HC 73(63), 132(106), parental(113H)) VH: EVQLVESGGGLVKPGGSLRLSCAASGFTFSSYSMNWVRQAPGKGLEWVSSISSSSSYISYADHVKGRFTISRDNAKNSLYLQMNSLRAEDTAVYFCARDYDFHSAHYDAFDVWGQGTMVTVSS VL: ESVLTQPPSVSGAPGQRVTISCTGSSSNIGAGYDVHWYQQLPGTAPKLLISGNSNRPSGVPDRFSGSKSGTSASLAITGLQAEDEADYYCQSYDSSLSGSVFGGGTKLTVLG . 0.000255

# koff lookup, item SS-15087 (antibody, V domains shown) VH: EVQLVESGGGLVKPGGSLRLSCAASGFTFSSYSMNWVRQAPGKGLEWVSSISSSSSYISYADSVKGRFTISRDNAKNSLYLQMNSLRAEDTAVYFCARDYDFHSAHYDAFDVWGQGTMVTVSS VL: ESVLTQPPSVSGAPGQRVTISCTGSSSNIGAGYDVHWYQQLPGTAPKLLISGNSNRPSGVPDRFSGSKSGTSASLAITGLQAEDEADYYCQSYDSSLHGSVFGGGTKLTVLG 0.000288

Which koff is reported for this binder? SS-15126 (antibody, V domains shown, 31H4 His variant: HC 66(56), 73(63), parental(113H)) VH: EVQLVESGGGLVKPGGSLRLSCAASGFTFSSYSMNWVRQAPGKGLEWVSSISSSSHYISYADHVKGRFTISRDNAKNSLYLQMNSLRAEDTAVYFCARDYDFHSAYYDAFDVWGQGTMVTVSS VL: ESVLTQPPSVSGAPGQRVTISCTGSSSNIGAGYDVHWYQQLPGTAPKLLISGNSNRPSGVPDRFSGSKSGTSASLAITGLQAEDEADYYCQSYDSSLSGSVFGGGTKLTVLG 0.000385

From: patent US20160032014A1
